Target: Voltage-gated potassium channel, KQT; KCNQ2(Kv7.2)/KCNQ3(Kv7.3) (Homo sapiens, UniProt O43525+O43526)
Sequence (O43526 whole entry): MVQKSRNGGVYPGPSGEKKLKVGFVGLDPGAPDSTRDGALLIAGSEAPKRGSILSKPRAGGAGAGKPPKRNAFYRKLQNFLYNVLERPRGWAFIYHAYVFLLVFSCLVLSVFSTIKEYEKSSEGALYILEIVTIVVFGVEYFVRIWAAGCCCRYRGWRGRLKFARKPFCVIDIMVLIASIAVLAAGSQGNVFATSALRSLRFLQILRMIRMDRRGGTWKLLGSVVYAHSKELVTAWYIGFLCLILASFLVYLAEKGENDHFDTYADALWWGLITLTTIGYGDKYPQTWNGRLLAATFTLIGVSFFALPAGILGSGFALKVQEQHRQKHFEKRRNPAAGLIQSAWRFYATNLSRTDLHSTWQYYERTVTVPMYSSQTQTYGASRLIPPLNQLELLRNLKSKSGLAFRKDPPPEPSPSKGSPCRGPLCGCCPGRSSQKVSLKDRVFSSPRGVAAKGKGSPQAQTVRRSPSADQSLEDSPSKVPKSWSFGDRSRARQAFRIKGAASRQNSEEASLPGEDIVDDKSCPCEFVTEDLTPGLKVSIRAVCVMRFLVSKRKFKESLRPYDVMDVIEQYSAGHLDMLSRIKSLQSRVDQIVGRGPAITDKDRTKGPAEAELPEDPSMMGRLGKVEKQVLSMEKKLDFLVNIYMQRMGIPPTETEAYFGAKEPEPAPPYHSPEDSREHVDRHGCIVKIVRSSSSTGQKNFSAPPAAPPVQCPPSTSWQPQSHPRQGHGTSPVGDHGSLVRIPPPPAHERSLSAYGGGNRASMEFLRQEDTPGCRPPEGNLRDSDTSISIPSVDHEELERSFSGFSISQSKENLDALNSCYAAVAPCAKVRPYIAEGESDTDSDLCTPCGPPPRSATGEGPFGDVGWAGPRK
Sequence (O43525 whole entry): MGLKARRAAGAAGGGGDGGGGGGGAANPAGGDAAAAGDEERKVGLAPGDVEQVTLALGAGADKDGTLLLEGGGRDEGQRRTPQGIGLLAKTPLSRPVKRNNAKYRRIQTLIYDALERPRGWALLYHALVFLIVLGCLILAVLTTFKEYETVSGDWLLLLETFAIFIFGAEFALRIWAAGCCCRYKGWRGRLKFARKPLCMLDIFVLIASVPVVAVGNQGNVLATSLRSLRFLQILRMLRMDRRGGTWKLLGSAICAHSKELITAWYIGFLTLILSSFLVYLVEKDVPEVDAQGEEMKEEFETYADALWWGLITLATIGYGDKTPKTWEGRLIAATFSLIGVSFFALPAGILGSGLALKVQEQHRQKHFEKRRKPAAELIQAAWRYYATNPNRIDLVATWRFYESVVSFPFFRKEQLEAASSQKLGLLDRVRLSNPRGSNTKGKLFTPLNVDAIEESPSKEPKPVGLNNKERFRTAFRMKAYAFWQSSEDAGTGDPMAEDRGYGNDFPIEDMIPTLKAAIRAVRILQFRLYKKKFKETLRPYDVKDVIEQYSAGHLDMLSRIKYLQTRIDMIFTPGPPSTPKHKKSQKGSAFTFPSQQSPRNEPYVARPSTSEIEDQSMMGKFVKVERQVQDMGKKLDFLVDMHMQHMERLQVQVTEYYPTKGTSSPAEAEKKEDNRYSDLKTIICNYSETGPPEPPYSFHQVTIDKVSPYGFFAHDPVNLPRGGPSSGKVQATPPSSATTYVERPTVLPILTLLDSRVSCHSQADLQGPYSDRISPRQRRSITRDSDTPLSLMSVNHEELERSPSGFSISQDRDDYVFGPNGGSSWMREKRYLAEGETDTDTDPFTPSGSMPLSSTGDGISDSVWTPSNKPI
Assay: Agonist activity at human KCNQ2/3 expressed in HEK293 cells by FLIPR based thallium influx assay
Kindly supply the reported EC50 values for the records listed here.
Answer in nM, number only, no unit symbol.

Prompt line: # return recorded EC50 for entry `O=C(CCC1CCCCC1)Nc1nn2cccnc2c1-c1ccccc1`
Response line: 130

Prompt line: # return recorded EC50 for entry `Cc1cnc2c(-c3ccc(F)c(C)c3)c(NC(=O)CC3CCCC3)nn2c1`
Response line: 140

Prompt line: # return recorded EC50 for entry CCOC(=O)Nc1ccc(NCc2ccc(F)cc2)nc1N [FLUPIRTINE]
Response line: 560

Prompt line: # return recorded EC50 for entry `Cc1cc(-c2c(NC(=O)CC3CCCC3)nn3cccnc23)ccc1F`
Response line: 1170

Prompt line: # return recorded EC50 for entry `O=C(CCC1CCCC1)Nc1nn2cccnc2c1-c1ccc(F)cc1`
Response line: 140

Prompt line: # return recorded EC50 for entry `O=C(CC1CCCC1)Nc1nn2cccnc2c1-c1ccc(OC(F)(F)F)cc1`
Response line: 190

Prompt line: # return recorded EC50 for entry `O=C(CC1CCCC1)Nc1nn2cccnc2c1-c1ccc(F)cc1`
Response line: 1000

Prompt line: # return recorded EC50 for entry `CC(C)(C)CC(=O)Nc1nn2cccnc2c1-c1ccc(F)cc1`
Response line: 6800

====

Assay: Oral bioavailability in rat at 1 mg/kg
Type: ADME, organism-based
Details: in vivo
experimentalEndpoint: bioavailability (%)
Answer in %, number only, no unit symbol.

Prompt line: # return recorded bioavailability for entry `CC(C)(C)CC(=O)Nc1nn2cccnc2c1-c1ccc(OC(F)(F)F)cc1`
Response line: 56

====

Kindly supply the reported pEC50 values for the records listed here.
Target: Voltage-gated potassium channel, KQT; KCNQ2(Kv7.2)/KCNQ3(Kv7.3) (Homo sapiens, UniProt O43525+O43526)
Assay: Agonist activity at human KCNQ2/3 expressed in HEK293 cells by FLIPR based thallium influx assay
Conceptually, pEC50 converts a concentration in mol/L into minus its log10.

Prompt line: # return recorded pEC50 for entry `Cc1cc(C)n2nc(NC(=O)CCC3CCCC3)c(-c3ccc(F)c(C)c3)c2n1`
Response line: 7.15

Prompt line: # return recorded pEC50 for entry `Cc1cc(-c2c(NC(=O)CCC3CCCC3)nn3cccnc23)ccc1F`
Response line: 6.74

Prompt line: # return recorded pEC50 for entry `CC(C)(C)CC(=O)Nc1nn2cccnc2c1-c1ccc(OC(F)(F)F)cc1`
Response line: 6.39

Prompt line: # return recorded pEC50 for entry `Cc1cc(C)n2nc(NC(=O)CC3CCCC3)c(-c3ccc(F)c(C)c3)c2n1`
Response line: 7.15

====

Molecular target: Voltage-gated potassium channel, KQT; KCNQ2(Kv7.2)/KCNQ3(Kv7.3) (Homo sapiens) (UniProt O43526+O43525)
Experiment: Agonist activity at human KCNQ2/3 expressed in HEK293 cells by FLIPR based thallium influx assay relative to retigabine
Format: cell-based
experimentalEndpoint: Emax

Prompt line: # return recorded Emax for entry `O=C(CC1CCCCC1)Nc1nn2cccnc2c1-c1ccccc1`
Response line: 133%

Prompt line: # return recorded Emax for entry `CC(C)(C)CC(=O)Nc1nn2cccnc2c1-c1ccc(C(F)(F)F)cc1`
Response line: 113%

Prompt line: # return recorded Emax for entry `O=C(CC1CCCC1)Nc1nn2cccnc2c1-c1ccc(F)cc1`
Response line: 100%

Prompt line: # return recorded Emax for entry `O=C(Nc1nn2cccnc2c1-c1ccccc1)C1CCCCC1`
Response line: 8%

Prompt line: # return recorded Emax for entry `Cc1cc(C)n2nc(NC(=O)CC3CCCC3)c(-c3ccc(F)c(C)c3)c2n1`
Response line: 165%

Prompt line: # return recorded Emax for entry `O=C(CC1CCCC1)Nc1nn2cccnc2c1-c1ccc(OC(F)(F)F)cc1`
Response line: 88%

Prompt line: # return recorded Emax for entry `Cc1cc(C)n2nc(NC(=O)CCC3CCCC3)c(-c3ccc(F)c(C)c3)c2n1`
Response line: 205%

Prompt line: # return recorded Emax for entry `CCOC(=O)Nc1ccc(NCc2ccc(F)cc2)cc1N`
Response line: 99%

Prompt line: # return recorded Emax for entry `O=C(CC1CCCC1)Nc1nn2cccnc2c1-c1ccc(C(F)(F)F)cc1`
Response line: 28%

Prompt line: # return recorded Emax for entry `Cc1cc(-c2c(NC(=O)CC(C)(C)C)nn3cccnc23)ccc1F`
Response line: 135%

Prompt line: # return recorded Emax for entry `Cc1cnc2c(-c3ccc(F)c(C)c3)c(NC(=O)CC3CCCC3)nn2c1`
Response line: 168%

Prompt line: # return recorded Emax for entry `Cc1cc(-c2c(NC(=O)CC3CCCC3)nn3cccnc23)ccc1F`
Response line: 139%

Prompt line: # return recorded Emax for entry `Cc1cnc2c(-c3ccc(F)c(C)c3)c(NC(=O)CC(C)(C)C)nn2c1`
Response line: 159%

Prompt line: # return recorded Emax for entry `CC(C)(C)CC(=O)Nc1nn2cccnc2c1-c1ccccc1`
Response line: 26%

Prompt line: # return recorded Emax for entry `Cc1cc(-c2c(NC(=O)CCC3CCCC3)nn3cccnc23)ccc1F`
Response line: 169%

Prompt line: # return recorded Emax for entry `O=C(Nc1nn2cccnc2c1-c1ccc(F)cc1)C1CCCC1`
Response line: 20%

Prompt line: # return recorded Emax for entry `CC(C)(C)c1ccnc2c(NC(=O)Cc3cc(F)cc(F)c3)cnn12`
Response line: 149%

Prompt line: # return recorded Emax for entry `CCOC(=O)Nc1ccc(NCc2ccc(F)cc2)nc1N`
Response line: 112%

====

Molecular target: Voltage-gated potassium channel, KQT; KCNQ2(Kv7.2)/KCNQ3(Kv7.3) (Homo sapiens, UniProt O43525+O43526)
Assay: Agonist activity at human KCNQ2/3 expressed in HEK293 cells by FLIPR based thallium influx assay
experimentalEndpoint: log10 EC50 (log10 of the value in µM)
Scale: decimal log of EC50, EC50 in µM.

Prompt line: # return recorded log10 EC50 for entry `Cc1cnc2c(-c3ccc(F)c(C)c3)c(NC(=O)CC(C)(C)C)nn2c1`
Response line: -0.23

Prompt line: # return recorded log10 EC50 for entry `CC(C)(C)CC(=O)Nc1nn2cccnc2c1-c1ccc(C(F)(F)F)cc1`
Response line: -0.85

Prompt line: # return recorded log10 EC50 for entry `Cc1cc(C)n2nc(NC(=O)CC(C)(C)C)c(-c3ccc(F)c(C)c3)c2n1`
Response line: -1.30

Prompt line: # return recorded log10 EC50 for entry `Cc1cnc2c(-c3ccc(F)c(C)c3)c(NC(=O)CCC3CCCC3)nn2c1`
Response line: -1.10

Prompt line: # return recorded log10 EC50 for entry `O=C(CC1CCCCC1)Nc1nn2cccnc2c1-c1ccccc1`
Response line: -0.54

Prompt line: # return recorded log10 EC50 for entry `O=C(CCC1CCCC1)Nc1nn2cccnc2c1-c1ccc(C(F)(F)F)cc1`
Response line: -1.30

Prompt line: # return recorded log10 EC50 for entry `CC(C)(C)c1ccnc2c(NC(=O)Cc3cc(F)cc(F)c3)cnn12`
Response line: -0.04

Prompt line: # return recorded log10 EC50 for entry `O=C(CCC1CCCC1)Nc1nn2cccnc2c1-c1ccc(OC(F)(F)F)cc1`
Response line: -0.51

Prompt line: # return recorded log10 EC50 for entry CCOC(=O)Nc1ccc(NCc2ccc(F)cc2)cc1N [EZOGABINE]
Response line: 0.64

Prompt line: # return recorded log10 EC50 for entry `Cc1cc(-c2c(NC(=O)CC(C)(C)C)nn3cccnc23)ccc1F`
Response line: 0.36

====

Assay: Plasma clearance in rat at 1 mg/kg. iv
Type: ADME, organism-based
experimentalEndpoint: clearance (mL/min/kg)
Answer in mL/min/kg, number only, no unit symbol.

Prompt line: # return recorded clearance for entry `CC(C)(C)CC(=O)Nc1nn2cccnc2c1-c1ccc(OC(F)(F)F)cc1`
Response line: 13.3

Taken from ChEMBL document CHEMBL4351029.
